Multiple publications report IC50 for yeast HSP90 (Saccharomyces cerevisiae); what follows is a combined list.

Use these answered entries as a reference point.
O=C(NC1c2cccc(-c3nc4ccncc4[nH]3)c2-n2cccc21)c1ccnc2[nH]ccc12 (stereo not drawn) : < 1 µM
Clc1nc(N2CCN(c3cccnc3)CC2)c2nc[nH]c2n1 : 1 to 10 µM
OCc1cc(F)ccc1N1CCN(c2nc(Cl)nc3[nH]cnc23)CC1 : < 1 µM
N#Cc1ccccc1CN1CCN(c2c[nH]nc2-c2cc(Cl)c(O)cc2O)CC1 : < 50 µM
Clc1nc(N2CCSCC2)c2nc[nH]c2n1 : 1 to 10 µM
COc1ccc(CNC(=O)c2c[nH]nc2-c2cc(Cl)c(O)cc2O)cc1 : < 50 µM

*Q* So what's the measured IC50 for this one? `Oc1cc(O)c(-c2nn(Cc3ccccc3)cc2N2CCNCC2)cc1Br`
*A* > 50 µM

*Q* Record: `NC(=O)c1cccnc1N1CCN(c2nc(Cl)nc3[nH]cnc23)CC1`
*A* < 1 µM

*Q* Record: `O=C(NCCc1cccs1)c1c[nH]nc1-c1cc(Cl)c(O)cc1O`
*A* < 50 µM

====

Multiple publications report pIC50 for UniProt:P02829; what follows is a combined list.
pIC50: −log10 of the molar value.

Use these answered entries as a reference point.
O=C(NC1c2ccccc2-c2c(-c3cc4ccccc4[nH]3)cccc21)c1ccnc2[nH]ccc12 (racemic) : > 6.00
COc1ccc(CN2CCN(c3nc(Cl)nc4[nH]cnc34)CC2)cc1OC : 4.00 to 5.00
Cc1nn(-c2cnc(C(N)=O)c(NC3CCOCC3)c2)c2cccc(-c3cnc4ccccc4c3)c12 : > 6.00

*Q* So what's the measured pIC50 for this one? `O=C(NCc1ccccc1)c1c[nH]nc1-c1cc(Cl)c(O)cc1O`
*A* < 4.30

====

Multiple publications report pIC50 for yeast HSP90 (Saccharomyces cerevisiae, UniProt P02829); what follows is a combined list.
pIC50: −log10 of the molar value.

*Q* Record lookup: for yeast HSP90 (Saccharomyces cerevisiae, UniProt P02829), what pIC50 belongs to `Cc1nn(-c2ccc(C(N)=O)c(N[C@H]3CC[C@H](O)CC3)c2)c2cccc(-c3nc4ccc(F)cc4[nH]3)c12` ?
*A* > 6.00

*Q* Record: `COc1ccc(CNC2CCN(c3c[nH]nc3-c3cc(Br)c(O)cc3O)CC2)cc1`
*A* > 4.30

*Q* Record: `Oc1cc(O)c(-c2n[nH]cc2N2CCN(CCc3ccccc3)CC2)cc1Cl`
*A* > 4.30

*Q* Record: `CC(C)n1cc(N2CCNCC2)c(-c2cc(Br)c(O)cc2O)n1`
*A* < 4.30

*Q* Record: `Clc1nc(N2CCN(c3ccccn3)CC2)c2nc[nH]c2n1`
*A* > 6.00

*Q* Record: O=C(NC1c2ccccc2-c2c(-c3cnc4ccccc4c3)cccc21)c1c(Br)cnc2[nH]cnc12 (racemic)
*A* > 6.00

*Q* Record: `Oc1cc(O)c(-c2n[nH]cc2N2CCNCC2)cc1CCc1cccc2c1OCO2`
*A* > 4.30

*Q* Record: `Clc1nc(N2CCN(C(c3ccccc3)c3ccccc3)CC2)c2nc[nH]c2n1`
*A* 5.00 to 6.00

*Q* Record: O=C(NC1c2ccccc2-c2c(-c3cnc4ccccc4c3)cccc21)c1ccnc2[nH]ccc12 (racemic)
*A* 5.00 to 6.00

*Q* Record: `Cc1nn(-c2cnc(C(N)=O)c(NCCc3ccccn3)c2)c2cccc(-c3cnc4ccccc4c3)c12`
*A* > 6.00

*Q* Record: `Oc1cc(O)c(-c2n[nH]cc2N2CCC(NCc3ccc4c(c3)OCO4)CC2)cc1Br`
*A* > 4.30

*Q* Record: `CC(C)n1ncc(N2CCNCC2)c1-c1cc(Br)c(O)cc1O`
*A* < 4.30
